Recorded values, source the CheMixHub drug solubility set.

Please provide measured solubility (g/100 g solution) for the entries that follow.
- method-summary: xn = mol fraction of the nth substance listed, in the solute-free solvent
- condition-label: 303.15 K; x2 = 0.3
Numbers only.

>  <molecule>
S=c1[nH]ncs1 + CC(C)=O + O

>  <endpoint-name>
solubility (g/100 g solution)

>  <endpoint-value>
22.2

$$$$
>  <molecule>
S=c1[nH]ncs1 + CO + O

>  <endpoint-name>
solubility (g/100 g solution)

>  <endpoint-value>
5.59

$$$$
>  <molecule>
CC(N)C(=O)O (centres undefined) + O + CO

>  <endpoint-name>
solubility (g/100 g solution)

>  <endpoint-value>
0.434

$$$$
>  <molecule>
S=c1[nH]ncs1 + CCO + O

>  <endpoint-name>
solubility (g/100 g solution)

>  <endpoint-value>
10.7

$$$$
>  <molecule>
S=c1[nH]ncs1 + CCCO + O

>  <endpoint-name>
solubility (g/100 g solution)

>  <endpoint-value>
12.9

$$$$

For every item in the list below, what is its measured solubility (g/100 g solution)?
1. CC(N)C(=O)O (centres undefined) + O + CCO
2. Cc1ncc(C[n+]2csc(CCO)c2C)c(N)n1.O=[N+]([O-])[O-] + O + CC(C)O
3. CCCCCOC(=O)Nc1nc(=O)n(C2OC(C)C(O)C2O)cc1F (centres undefined) + CCOC(C)=O + CCCCCC
4. Cc1ncc(C[n+]2csc(CCO)c2C)c(N)n1.O=[N+]([O-])[O-] + O + CC(C)=O

[out]
0.127
0.093
0.137
0.138
